Ref: patent US12630600B2

target: human GLP-1 receptor (human, UniProt P43220); assay: cell-based or functional assay
Starred links: 1 amine or outer side, 2 acyl side, 3 side chain; linkers in the order of their positions; H or OH if unused. Non-standard residues stand in square brackets, D forms with d. Groups on a side chain read outwards from the residue. Primed or numbered codes have the meaning given here. No end group written: not given here. *: point of attachment. C18 diacid = O=C(O)CCCCCCCCCCCCCCCCC(=O)*; Dip = N[C@H](C(=O)O)C(c1ccccc1)c1ccccc1; γGlu = O=C(O)[C@H](CCC(=O)[*:2])N[*:1]; Stearoyl = CCCCCCCCCCCCCCCCCC(=O)*; Palmitoyl = CCCCCCCCCCCCCCCC(=O)*; αMeF = C[C@](N)(Cc1ccccc1)C(=O)O; Myristoyl = CCCCCCCCCCCCCC(=O)*; (PEG)2 = polyethylene glycol 2; PEG2′ = polyethylene glycol 2; AEEA = NCCOCCOCC(=O)O; Aib = CC(C)(N)C(=O)O
measurement.name: cAMP production, hGLP-1R EC50 (pM)
One number for each entry, in pM.

> print(dat)
                                     binder  unit.tag  value
1  HSQGS[αMeF]TSDVSKILDSK([(PEG)2-(PEG)2-γGlu-γGlu-Palmitoyl])AAQD[αMeF]VQ[Aib]IINT-NH2 [Peptide 118]        pM   1.07
2  H[Aib]HGS[αMeF]TSDVSK[αMeF]LDSK([AEEA-AEEA-γGlu-C18 diacid])AAQDFVQ[Aib]IANT-NH2 [Peptide 11]        pM    157
3  HSQGS[αMeF]TSDVSK(Ac)[Aib]LDSK([(PEG)2-(PEG)2-γGlu-γGlu-Stearoyl])AAQD[αMeF]VQ[Aib]IAN-NH2 [Peptide 110]        pM  0.627
4  HSQGS[αMeF]TSDVSK[Dip]LDSK([(PEG)2-(PEG)2-γGlu-γGlu-Myristoyl])AAQD[αMeF]VE[Aib]IINT-NH2 [Peptide 63]        pM   3.14

Moving on to another binder below.
// recorded cAMP production, hGLP-1R EC50 (pM) for HSQGS[αMeF]TSDVSK[αMeF]LDSK([PEG2′-PEG2′-γGlu-γGlu-Palmitoyl])AAQD[αMeF]VQ[Aib]LEAGG-NH2 [Peptide 79] : 1.73
